Documented activity at 2.56 pM across a set of compounds
- tgt: BTK (Homo sapiens, UniProt Q06187)
- Sequence (Q06187 whole entry): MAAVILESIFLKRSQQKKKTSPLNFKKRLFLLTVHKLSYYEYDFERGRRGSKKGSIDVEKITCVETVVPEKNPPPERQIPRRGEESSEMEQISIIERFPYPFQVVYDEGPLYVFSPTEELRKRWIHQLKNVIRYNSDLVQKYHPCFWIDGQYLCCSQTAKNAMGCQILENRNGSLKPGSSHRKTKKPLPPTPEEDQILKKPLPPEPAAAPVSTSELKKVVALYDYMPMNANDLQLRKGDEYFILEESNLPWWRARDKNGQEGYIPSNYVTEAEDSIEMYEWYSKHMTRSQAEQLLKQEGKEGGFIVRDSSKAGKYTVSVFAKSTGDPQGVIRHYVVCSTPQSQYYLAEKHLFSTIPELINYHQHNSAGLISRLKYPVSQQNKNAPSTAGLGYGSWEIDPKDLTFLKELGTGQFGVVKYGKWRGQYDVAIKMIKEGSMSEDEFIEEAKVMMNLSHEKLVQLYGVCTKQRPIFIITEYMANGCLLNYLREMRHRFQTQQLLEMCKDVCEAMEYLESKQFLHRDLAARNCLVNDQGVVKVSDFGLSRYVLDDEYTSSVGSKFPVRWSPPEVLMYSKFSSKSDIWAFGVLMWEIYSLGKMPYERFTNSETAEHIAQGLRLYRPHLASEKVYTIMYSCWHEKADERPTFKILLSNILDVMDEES
- assay-info: In vitro BTK kinase assay (PhosphoSens)
- Type: biochemical
- Parameters: purchased SignalChem B10-10H-10
- particulars: Supplementary Figure 5; drug concentration 2.56 pM; replicates; read-out: Inhibition(%)
measure-name: activity at 2.56 pM (%)

* CN(CCCNC(=O)CNc1cccc2c1C(=O)N(C1CCC(=O)NC1=O)C2=O)CCCC(=O)N1CCCC(n2nc(-c3ccc(Oc4ccccc4)cc3)c3c(N)ncnc32)C1 (centres unmarked) | 87.5
* CN(CC=CC(=O)N1CCCC(n2nc(-c3ccc(Oc4ccccc4)cc3)c3c(N)ncnc32)C1)CCCNC(=O)CNc1cccc2c1C(=O)N(C1CCC(=O)NC1=O)C2=O (centres unmarked) | 86.2
* CN(CCCNC(=O)CNc1cccc2c1C(=O)N(C1CCC(=O)NC1=O)C2=O)C(C)(C)C=C(C#N)C(=O)N1CCC[C@@H](n2nc(-c3ccc(Oc4ccccc4)cc3)c3c(N)ncnc32)C1 (some centres unmarked) | 87.3
* CC(C)(C)C=C(C#N)C(=O)N1CCCC(n2nc(-c3ccc(Oc4ccccc4)cc3)c3c(N)ncnc32)C1 (centres unmarked) | 108
* CN1C(=O)CCC(N2C(=O)c3cccc(NCC(=O)NCCCN(C)C(C)(C)C=C(C#N)C(=O)N4CCCC(n5nc(-c6ccc(Oc7ccccc7)cc6)c6c(N)ncnc65)C4)c3C2=O)C1=O (centres unmarked) | 108
